System: RAW264.7
Experiment: Antiinflammatory activity in mouse RAW264.7 cells assessed as inhibition of LPS-induced NO production by measuring nitrite level at 20 uM pretreated for 2 hrs followed by LPS challenge measured after 24 hrs by Griess assay
Type: functional, cell-based
The source made the active and inactive calls. The calls are words filed in the database; no cut-off is given here.
Form entry, call: pick from yes for active, no for inactive

>  <COMPOUND>
CC(O)CNC(=O)/C=C/[C@@]1(C)CC[C@]2(C)CC[C@]3(C)C(=CC(=O)[C@@H]4[C@@]5(C)CC[C@H](O)C(C)(C)[C@@H]5CC[C@]43C)[C@@H]2C1 (some centres undefined)

>  <ASSIGNED_CLASS>
yes

$$$$

Look up the recorded call for CC1(C)[C@@H](O)CC[C@]2(C)[C@H]3C(=O)C=C4[C@@H]5C[C@@](C)(/C=C/C(=O)NNc6ccccc6)CC[C@]5(C)CC[C@@]4(C)[C@]3(C)CC[C@@H]12 in this test.
no

Similarly, CCNC(=O)/C=C/[C@@]1(C)CC[C@]2(C)CC[C@]3(C)C(=CC(=O)[C@@H]4[C@@]5(C)CC[C@H](O)C(C)(C)[C@@H]5CC[C@]43C)[C@@H]2C1 ?
yes

Similarly, CC1(C)[C@@H](O)CC[C@]2(C)[C@H]3C(=O)C=C4[C@@H]5C[C@@](C)(C(=O)O)CC[C@]5(C)CC[C@@]4(C)[C@]3(C)CC[C@@H]12 ?
yes
